As shown below, each of these binders has a reported ECL signal value.
# system.under.test: DR4G90: Human HLA-DRA1*01:02/DRB1*04:01 ECD with collagen II peptide CII_1236-1249 (human)
# protocol.summary: MSD ECL; antigen coated; mAb 0.2 µg/ml
quantity.measured: ECL signal (ECL)

binder	result.unit	experimental.result
DR4B4 (antibody, V domains shown, also called Lym-1 re-engineered as IgG2sigma) VH: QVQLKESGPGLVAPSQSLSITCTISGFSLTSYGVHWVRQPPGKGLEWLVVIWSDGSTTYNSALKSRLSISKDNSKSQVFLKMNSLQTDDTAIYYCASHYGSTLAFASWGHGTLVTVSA VL: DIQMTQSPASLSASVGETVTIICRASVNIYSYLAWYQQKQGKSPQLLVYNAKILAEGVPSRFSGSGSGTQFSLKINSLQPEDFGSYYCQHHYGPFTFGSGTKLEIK	ECL	1.09e+06
DR4B30 (antibody, human IgG2, kappa, V domains shown, also called VH DR4H39 / VL PH9L3) VH: EVQLVQSGAEVKKPGESLKISCKGSGYSFTSDWIGWVRQMPGKGLEWMGIIRPGDSDTYYSPSFQGQVTISADKSISTAYLQWSSLKASDTAVYYCARESYYYVGVRYRPSYYFDYWGQGTLVTVSS VL: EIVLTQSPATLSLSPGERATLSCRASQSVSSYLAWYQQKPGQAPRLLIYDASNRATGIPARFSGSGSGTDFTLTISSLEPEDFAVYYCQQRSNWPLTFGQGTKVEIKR	ECL	1.25e+06
DR4B127 (antibody, human IgG2, kappa, V domains shown, also called VH DR4H7 / VL PH9L3) VH: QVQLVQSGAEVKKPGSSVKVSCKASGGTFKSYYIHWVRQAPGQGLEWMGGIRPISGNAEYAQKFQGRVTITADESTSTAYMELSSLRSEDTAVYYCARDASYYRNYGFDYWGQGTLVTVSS VL: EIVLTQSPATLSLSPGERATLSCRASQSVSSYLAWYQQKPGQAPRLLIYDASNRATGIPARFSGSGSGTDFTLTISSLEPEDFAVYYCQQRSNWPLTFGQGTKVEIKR	ECL	1.1e+06
DR4B5 (antibody, V domains shown, also called apolizumab (1D10) re-engineered as IgG2sigma) VH: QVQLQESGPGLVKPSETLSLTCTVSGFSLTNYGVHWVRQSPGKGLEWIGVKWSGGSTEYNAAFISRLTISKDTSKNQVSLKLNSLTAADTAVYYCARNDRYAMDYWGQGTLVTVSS VL: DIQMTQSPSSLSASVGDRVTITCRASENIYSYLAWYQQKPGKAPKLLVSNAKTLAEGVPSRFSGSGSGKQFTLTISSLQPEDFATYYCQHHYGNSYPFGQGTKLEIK	ECL	1.31e+06
